Target: proton pump (H+/K+-ATPase) (Sus scrofa, UniProt P19156)
Construct: Gastric vesicles were prepared from hog stomach via centrifugal separation
Sequence (P19156 whole entry): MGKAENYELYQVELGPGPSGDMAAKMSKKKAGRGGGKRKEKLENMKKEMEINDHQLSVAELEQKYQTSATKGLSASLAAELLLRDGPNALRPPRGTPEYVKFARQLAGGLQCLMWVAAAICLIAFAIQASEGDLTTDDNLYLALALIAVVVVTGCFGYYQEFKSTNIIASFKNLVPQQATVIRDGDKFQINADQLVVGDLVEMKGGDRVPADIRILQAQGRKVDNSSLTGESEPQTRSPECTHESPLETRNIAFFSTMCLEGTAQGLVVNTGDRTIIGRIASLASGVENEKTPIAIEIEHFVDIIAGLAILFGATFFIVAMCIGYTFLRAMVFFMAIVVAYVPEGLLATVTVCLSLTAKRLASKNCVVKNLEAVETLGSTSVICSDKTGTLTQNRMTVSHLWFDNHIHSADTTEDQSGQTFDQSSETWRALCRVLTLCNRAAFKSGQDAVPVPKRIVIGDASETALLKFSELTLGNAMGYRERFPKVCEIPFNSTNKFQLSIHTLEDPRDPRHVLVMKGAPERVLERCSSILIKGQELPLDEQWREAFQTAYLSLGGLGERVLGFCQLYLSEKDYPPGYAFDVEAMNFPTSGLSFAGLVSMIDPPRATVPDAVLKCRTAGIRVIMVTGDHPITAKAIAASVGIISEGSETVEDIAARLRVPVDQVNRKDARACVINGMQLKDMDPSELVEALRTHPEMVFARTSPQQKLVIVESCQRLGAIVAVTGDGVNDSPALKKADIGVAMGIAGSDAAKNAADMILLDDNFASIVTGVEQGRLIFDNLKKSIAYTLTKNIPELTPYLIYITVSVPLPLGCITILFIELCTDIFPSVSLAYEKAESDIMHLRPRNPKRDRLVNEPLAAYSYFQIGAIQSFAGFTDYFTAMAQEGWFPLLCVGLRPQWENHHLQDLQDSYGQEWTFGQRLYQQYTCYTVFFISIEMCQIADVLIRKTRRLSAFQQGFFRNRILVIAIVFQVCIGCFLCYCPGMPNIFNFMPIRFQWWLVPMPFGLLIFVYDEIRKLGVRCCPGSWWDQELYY
Sequence (P18434 whole entry partner): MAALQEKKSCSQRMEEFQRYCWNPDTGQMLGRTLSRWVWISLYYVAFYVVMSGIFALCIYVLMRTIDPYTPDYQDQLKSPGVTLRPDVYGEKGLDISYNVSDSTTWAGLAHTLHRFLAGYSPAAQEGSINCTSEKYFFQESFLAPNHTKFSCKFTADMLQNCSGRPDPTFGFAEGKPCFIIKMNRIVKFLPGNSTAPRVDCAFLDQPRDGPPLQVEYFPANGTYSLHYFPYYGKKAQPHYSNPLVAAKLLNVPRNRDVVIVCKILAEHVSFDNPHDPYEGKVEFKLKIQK
Test: Measurement of inhibitory effects on proton pump (H+/K+-ATPase) activities
Details: hog gastric vesicles, K+-specific H+/K+-ATPase activity, Tris-HCl buffer pH 7.4, 37° C. for 40 minutes, malachite green Pi readout
Where a name gives a salt, the structure may show the parent alone.
IC50 strictly less than 1000 nM = true (1). Otherwise false (0).

Check out these entries, answers already filled in.
> print(dat)
                                   molecule  assignedlabel
1  CNCc1cn(S(=O)(=O)c2cccnc2)c2cc(Nc3ccccc3Cl)ccc12 [Example 4, hydrochloride]       true (1)
2  CNCc1cn(S(=O)(=O)c2cccnc2)c2cc(Nc3ccc(Cl)cc3C)cnc12 [Example 348, hydrochloride]       true (1)
3  CNCc1cn(S(=O)(=O)c2cccnc2)c2cc(Nc3ccc(C(F)(F)F)cc3F)ccc12 [Example 33, hydrochloride]      false (0)
4  COc1ccc(Nc2ccc3c(CN4CCCC4)cn(S(=O)(=O)c4cccc(C(F)(F)F)c4)c3c2)c(Cl)n1      false (0)

Query string: Here's an entry: CNCc1cn(S(=O)(=O)c2cccc(OC)c2)c2cc(Nc3ccc(OC(F)(F)F)cc3C)ccc12 [Example 168, hydrochloride] . Is its IC50 below 1000 nM?
Result string: true (1)

Query string: Here's an entry: CNCc1cn(S(=O)(=O)c2cccc3ccccc23)c2cc(Nc3ccc(C)cc3F)ccc12 [Example 233, hydrochloride] . Is its IC50 below 1000 nM?
Result string: false (0)

---

System: basal gastric acid secretion
Test: Inhibitory effect on the basal gastric acid secretion in pylorus-ligated rats (Shay's rat model)
Assay type: in vivo, Sprague Dawley (SD) rats
Conditions: 5 h, male SD rats, 3 mg/kg/2 ml into the duodenum, five hours after the ligation, total gastric acid secretion vs control group
Structures can show the parent of a compound that is named as a salt.
Reported inhibition in vivo at 3 mg/kg values are given for each entry in this list.
Write it as a number; the unit % goes unstated.

> print(dat)
                                   compound                        readout  unitspec  numericvalue
1  CNCc1cn(S(=O)(=O)c2cccnc2)c2cc(Nc3ccc(Cl)cc3Cl)ccc12 [Example 29, hydrochloride]  inhibition in vivo at 3 mg/kg         %            44

Query string: Lab request: please report inhibition in vivo at 3 mg/kg under test system basal gastric acid secretion for CNCc1cn(S(=O)(=O)c2cccc(C(F)(F)F)c2)c2cc(N(C)c3ccc(OC)nc3Cl)ccc12 [Example 315, hydrochloride]
Result string: 45

Query string: Lab request: please report inhibition in vivo at 3 mg/kg under test system basal gastric acid secretion for CNCc1cn(S(=O)(=O)c2cccnc2)c2cc(Nc3ccnc(Cl)c3Br)ccc12 [Example 133, hydrochloride]
Result string: 40

Query string: Lab request: please report inhibition in vivo at 3 mg/kg under test system basal gastric acid secretion for CNCc1cn(S(=O)(=O)c2cccc(F)c2)c2cc(Nc3ccc(Cl)nc3Cl)ccc12 [Example 142, hydrochloride]
Result string: 42

Query string: Lab request: please report inhibition in vivo at 3 mg/kg under test system basal gastric acid secretion for CNCc1cn(S(=O)(=O)c2cccnc2)c2cc(Nc3ccc(OC)cc3OC(F)(F)F)ccc12 [Example 50, hydrochloride]
Result string: 67

Query string: Lab request: please report inhibition in vivo at 3 mg/kg under test system basal gastric acid secretion for CNCc1cn(S(=O)(=O)c2cncc(F)c2)c2cc(Nc3ccc(F)cc3Cl)ccc12 [Example 213, hydrochloride]
Result string: 50

Query string: Lab request: please report inhibition in vivo at 3 mg/kg under test system basal gastric acid secretion for CNCc1cn(S(=O)(=O)c2cccnc2)c2cc(Nc3ccc(OC(F)(F)F)cc3Cl)ccc12 [Example 55, hydrochloride]
Result string: 55

Query string: Lab request: please report inhibition in vivo at 3 mg/kg under test system basal gastric acid secretion for CNCc1cn(S(=O)(=O)c2cccnc2)c2cc(Nc3ccc(C)cc3F)ccc12 [Example 1, hydrochloride]
Result string: 58

Query string: Lab request: please report inhibition in vivo at 3 mg/kg under test system basal gastric acid secretion for CNCc1cn(S(=O)(=O)c2cccnc2)c2cc(Nc3ccc(Cl)cc3C(F)(F)F)ccc12 [Example 31, hydrochloride]
Result string: 41

Query string: Lab request: please report inhibition in vivo at 3 mg/kg under test system basal gastric acid secretion for CNCc1cn(S(=O)(=O)c2cccnc2)c2cc(Nc3ccc(Cl)nc3OC)ccc12 [Example 120, hydrochloride]
Result string: 46

Query string: Lab request: please report inhibition in vivo at 3 mg/kg under test system basal gastric acid secretion for CNCc1cn(S(=O)(=O)c2cccc(F)c2)c2cc(Nc3ccc(OC)nc3Cl)ccc12 [Example 144, hydrochloride]
Result string: 53

Query string: Lab request: please report inhibition in vivo at 3 mg/kg under test system basal gastric acid secretion for CNCc1cn(S(=O)(=O)c2cccnc2)c2cc(Nc3ccc(OC(F)(F)F)cc3C)ccc12 [Example 53, hydrochloride]
Result string: 45

Query string: Lab request: please report inhibition in vivo at 3 mg/kg under test system basal gastric acid secretion for CNCc1cn(S(=O)(=O)c2cccc(Cl)c2)c2cc(Nc3ccc(C)cc3OC(F)(F)F)ccc12 [Example 148, hydrochloride]
Result string: 45

Query string: Lab request: please report inhibition in vivo at 3 mg/kg under test system basal gastric acid secretion for CNCc1cn(S(=O)(=O)c2cncc(F)c2)c2cc(Nc3ccc(OC(F)(F)F)cc3OC)ccc12 [Example 216, hydrochloride]
Result string: 69
